# measured.on: bradykinin 1 receptor (B1R) of the rat (Rattus norvegicus)
# Construct: expressed in transfected cells; host or cells: CHO K1 cells
# protocol.description: Functional investigation on the rat bradykinin 1 receptor (B1R), Ca2+ FLIPR assay in CHO K1 rB1R cells
# Format: cell-based
# particulars: B1R antagonism rat; test substance 10 μM; Ca2+ FLIPR, CHO K1 rB1R cells
result.type: B1R Ant. r [10 μM] % Inhibition (%)
Enter your answer as a number in %; do not include the unit.

// solved cases for B1R Ant. r [10 μM] % Inhibition follow
COc1cc(C)c(S(=O)(=O)N2CCC(CCOCC(=O)NCC3CCC(C(c4ccc(F)cc4)N(C)C)CC3)CC2)c(C)c1C (centres unmarked) [Example 481] | 49
Cc1cc(C)c(S(=O)(=O)N2CCC(OCC(=O)NCC3CCC(C(CCc4ccccc4)N(C)C)CC3)C2)c(C)c1 (centres unmarked) [Example 475] | 40
COc1ccc(S(=O)(=O)N(C)CCOCC(=O)NCCC2CCC(C(c3cccc(F)c3)N(C)C)CC2)cc1 (centres unmarked) [Example 292] | 34
CN(C)C(c1ccc(F)cc1)C1CCC(CNC(=O)COCCN(C)S(=O)(=O)c2ccc(F)cc2)CC1 (centres unmarked) [Example 400] | 9
CN(C)C(c1ccc(F)cc1)C1CCC(NC(=O)COCCN(C)S(=O)(=O)c2c(Cl)cccc2Cl)CC1 (centres unmarked) [Example 363] | 29

In: Input Cc1ccc(S(=O)(=O)N(C)CCOCC(=O)NC2CCC(C(c3ccc(F)cc3)N(C)C)CC2)cc1 (centres unmarked) [Example 448] , output reported B1R Ant. r [10 μM] % Inhibition.
Out: 12

In: Input COc1cc(C)c(S(=O)(=O)N(C)CCOCC(=O)NC2CCC(C(c3ccccc3)N(C)C)CC2)c(C)c1C (centres unmarked) [Example 80] , output reported B1R Ant. r [10 μM] % Inhibition.
Out: 6

In: Input CN(C)C(c1ccc(F)cc1)C1CCC(CCNC(=O)COCCC2CCN(S(=O)(=O)c3ccccc3)CC2)CC1 (centres unmarked) [Example 470] , output reported B1R Ant. r [10 μM] % Inhibition.
Out: 23

###

# measured.on: human μ opiate receptor (Homo sapiens, UniProt P35372)
# Construct: purchased PerkinElmer Life Sciences, Zaventem, Belgium RB-HOM; host or cells: CHO-K1 cells (membrane preparation)
# Sequence (P35372 whole entry): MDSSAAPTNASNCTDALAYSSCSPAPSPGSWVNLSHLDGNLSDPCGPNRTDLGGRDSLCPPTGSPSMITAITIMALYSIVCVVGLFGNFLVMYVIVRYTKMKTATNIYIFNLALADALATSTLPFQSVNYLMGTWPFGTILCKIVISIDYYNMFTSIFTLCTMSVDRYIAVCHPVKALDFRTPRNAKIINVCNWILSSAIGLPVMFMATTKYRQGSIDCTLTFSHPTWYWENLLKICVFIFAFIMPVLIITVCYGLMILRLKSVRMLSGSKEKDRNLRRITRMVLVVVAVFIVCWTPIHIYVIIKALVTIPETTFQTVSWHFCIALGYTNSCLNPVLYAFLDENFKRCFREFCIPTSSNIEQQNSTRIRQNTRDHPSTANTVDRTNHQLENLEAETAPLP
# protocol.description: Affinity for the human μ opiate receptor ([3H]-naloxone displacement, CHO-K1 receptor membrane preparation, SPA)
# Format: binding
# particulars: test concentration of 1 μM
compounds and their reported μ (binding on the μ opioid receptor, % inhibition)
Enter your answer as a number in %; do not include the unit.

In: Input CN(C)C(c1cccc(F)c1)C1CCC(CNC(=O)COC2CCN(S(=O)(=O)c3ccccc3)CC2)CC1 (stereo not shown) [Example 477] , output reported μ (binding on the μ opioid receptor, % inhibition).
Out: 51

In: Input CN(C)C(c1cccc(F)c1)C1CCC(CCNC(=O)COCCN2CCN(S(=O)(=O)c3ccccc3)CC2)CC1 (stereo not shown) [Example 325] , output reported μ (binding on the μ opioid receptor, % inhibition).
Out: 68

In: Input COc1cc(C)c(S(=O)(=O)N2CCC(OCC(=O)NCCC3CCC(C(c4cccc(F)c4)N(C)C)CC3)CC2)c(C)c1C (stereo not shown) [Example 232] , output reported μ (binding on the μ opioid receptor, % inhibition).
Out: 78

In: Input CN(C)C(c1cccc(F)c1)C1CCC(NC(=O)COCCN(C)S(=O)(=O)c2ccc(Cl)cc2Cl)CC1 (stereo not shown) [Example 217] , output reported μ (binding on the μ opioid receptor, % inhibition).
Out: 89

In: Input CN(C)C(c1ccc(F)cc1)C1CCC(CNC(=O)COCCN2CCN(S(=O)(=O)c3ccccc3)CC2)CC1 (stereo not shown) [Example 433] , output reported μ (binding on the μ opioid receptor, % inhibition).
Out: 46

In: Input COc1cc(C)c(S(=O)(=O)N2CCC(OCC(=O)NCC3CCC(C(CCc4ccccc4)N(C)C)CC3)CC2)c(C)c1C (stereo not shown) [Example 546] , output reported μ (binding on the μ opioid receptor, % inhibition).
Out: 33

In: Input CN(C)C(c1ccc(Cl)cc1)C1CCC(CNC(=O)COCCN(Cc2ccccc2)S(=O)(=O)c2ccccc2)CC1 (stereo not shown) [Example 343] , output reported μ (binding on the μ opioid receptor, % inhibition).
Out: 62

In: Input COc1ccc(S(=O)(=O)N2CCCCC2COCC(=O)NCCC2CCC(C(c3ccc(F)cc3)N(C)C)CC2)cc1OC (stereo not shown) [Example 462] , output reported μ (binding on the μ opioid receptor, % inhibition).
Out: 51

###

# measured.on: bradykinin 1 receptor (B1R) of the rat (Rattus norvegicus)
# Construct: expressed in transfected cells; host or cells: CHO K1 cells
# Sequence (P97583 1-337): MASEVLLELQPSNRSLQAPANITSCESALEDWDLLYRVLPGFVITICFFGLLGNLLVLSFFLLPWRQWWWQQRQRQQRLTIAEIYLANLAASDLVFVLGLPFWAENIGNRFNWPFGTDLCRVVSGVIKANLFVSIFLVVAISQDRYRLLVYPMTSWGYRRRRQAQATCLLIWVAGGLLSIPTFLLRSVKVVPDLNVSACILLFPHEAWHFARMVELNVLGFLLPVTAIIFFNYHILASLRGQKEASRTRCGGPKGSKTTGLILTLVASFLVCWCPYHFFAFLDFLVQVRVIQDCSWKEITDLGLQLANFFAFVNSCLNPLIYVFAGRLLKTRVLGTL
# protocol.description: Functional investigation on the rat bradykinin 1 receptor (B1R), Ca2+ FLIPR assay in CHO K1 rB1R cells
# Assay type: cell-based
# particulars: CHO-K1, B1R antagonism rat; test substance 10 μM; Ca2+ FLIPR, CHO K1 rB1R cells; read-out: B1R Ant. r [10 μM] % Inhibition
# From the text: Functional Investigation on the Human Bradykinin 1 Receptor (B1R) The agonistic or antagonistic action of substances can be determined on the bradykinin 1 receptor (B1R) of the human species and rats with the following assay. In accordance with this assay, the Ca^2+ inflow through the channel is quantified with the aid of a Ca^2=-sensitive dyestuff (type Fluo-4, Molecular Probes Europe BV, Leiden, Holland) in a fluorescent imaging plate reader (FLIPR, Molecular Devices, Sunnyvale, USA). […]
compounds and their reported inhibition at 10 µM
Enter your answer as a number in %; do not include the unit.

// solved cases for inhibition at 10 µM follow
COc1cc(C)c(S(=O)(=O)N(C)CCOCC(=O)NCC2CCC(C(c3cccs3)N(C)C)CC2)c(C)c1 (stereo not shown) | 100
COc1cc(C)c(S(=O)(=O)N2CCC(OCC(=O)NC3CCC(C(c4ccccc4)N(C)C)CC3)C2)c(C)c1 (stereo not shown) | 38
Cc1ccc(S(=O)(=O)N2CCC(OCC(=O)NCC3CCC(C(c4ccccc4)N(C)C)CC3)C2)cc1 (stereo not shown) | 6

// next entry
In: Input CN(C)C(c1ccccc1)C1CCC(CNC(=O)COC2CCN(S(=O)(=O)c3cccc(C(F)(F)F)c3)C2)CC1 (stereo not shown) , output reported inhibition at 10 µM.
Out: 28

###

# measured.on: serotonin (5-HT) reuptake (Rattus norvegicus, UniProt P31652)
# Construct: synaptosomes are freshly isolated from areas of the rat brain; from tissue; host or cells: rat brain synaptosomes (P2 fraction)
# Sequence (P31652 whole entry): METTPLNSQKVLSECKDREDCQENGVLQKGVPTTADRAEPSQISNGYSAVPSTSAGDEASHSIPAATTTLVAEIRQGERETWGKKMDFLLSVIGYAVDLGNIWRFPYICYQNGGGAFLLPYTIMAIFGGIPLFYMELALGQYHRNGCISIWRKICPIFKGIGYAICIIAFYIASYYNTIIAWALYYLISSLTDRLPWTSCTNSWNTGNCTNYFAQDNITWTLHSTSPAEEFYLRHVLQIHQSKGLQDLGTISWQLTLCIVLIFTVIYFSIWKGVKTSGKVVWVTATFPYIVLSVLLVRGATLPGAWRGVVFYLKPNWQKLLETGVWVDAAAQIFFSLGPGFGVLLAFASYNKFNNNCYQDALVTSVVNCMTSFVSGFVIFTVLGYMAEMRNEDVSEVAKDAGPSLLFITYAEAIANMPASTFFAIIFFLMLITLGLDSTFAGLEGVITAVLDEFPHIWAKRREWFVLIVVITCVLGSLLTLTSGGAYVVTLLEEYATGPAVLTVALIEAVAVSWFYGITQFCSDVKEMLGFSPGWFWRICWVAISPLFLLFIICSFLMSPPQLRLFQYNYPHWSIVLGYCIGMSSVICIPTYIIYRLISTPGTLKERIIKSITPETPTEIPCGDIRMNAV
# protocol.description: Inhibition of serotonin (5HT) reuptake in synaptosomes from rat brain
# Type: biochemical
# particulars: test concentration of 10 μM
result.type: 5-HT (inhibition of reuptake of serotonin, % inhibition) (%)
Enter your answer as a number in %; do not include the unit.

In: Input COc1ccc(S(=O)(=O)N2CCC(OCC(=O)NCC3CCC(C(c4ccc(Cl)cc4)N(C)C)CC3)C2)cc1OC (stereo not shown) [Example 260] , output reported 5-HT (inhibition of reuptake of serotonin, % inhibition).
Out: 88

In: Input COc1cc(C)c(S(=O)(=O)N(CCOCC(=O)NC2CCC(C(c3ccc(F)cc3)N(C)C)CC2)Cc2ccccc2)c(C)c1C (stereo not shown) [Example 523] , output reported 5-HT (inhibition of reuptake of serotonin, % inhibition).
Out: 81

In: Input COc1cc(C)c(S(=O)(=O)N2CCC(CCOCC(=O)NCC3CCC(C(c4ccc(F)cc4)N(C)C)CC3)CC2)c(C)c1C (stereo not shown) [Example 481] , output reported 5-HT (inhibition of reuptake of serotonin, % inhibition).
Out: 88

In: Input CN(C)C(c1cccc(F)c1)C1CCC(NC(=O)COCCN2CCN(S(=O)(=O)c3ccccc3)CC2)CC1 (stereo not shown) [Example 364] , output reported 5-HT (inhibition of reuptake of serotonin, % inhibition).
Out: 95

###

# measured.on: bradykinin 1 receptor (B1R) of the rat (Rattus norvegicus, UniProt P97583)
# Construct: expressed in transfected cells; host or cells: CHO K1 cells
# protocol.description: Functional investigation on the rat bradykinin 1 receptor (B1R), Ca2+ FLIPR assay in CHO K1 rB1R cells
# Assay type: cell-based
# particulars: B1R antagonism rat; test substance 10 μM; Ca2+ FLIPR, CHO K1 rB1R cells
result.type: B1R Ant. r [10 μM] % Inhibition (%)
Enter your answer as a number in %; do not include the unit.

// solved cases for B1R Ant. r [10 μM] % Inhibition follow
COc1cc(C)c(S(=O)(=O)N(CCOCC(=O)NCCC2CCC(C(c3cccc(F)c3)N(C)C)CC2)Cc2ccccc2)c(C)c1C (stereo not shown) | 10
COc1cc(C)c(S(=O)(=O)N(C)CCOCC(=O)NCC2CCC(C(c3ccc(Cl)cc3)N(C)C)CC2)c(C)c1 (stereo not shown) | 99
CN(C)C(c1ccccc1)C1CCC(CNC(=O)COCCN(C)S(=O)(=O)c2c(Cl)cc(Cl)cc2Cl)CC1 (stereo not shown) | 29
COc1ccc(S(=O)(=O)N2CCCCC2COCC(=O)NC2CCC(C(c3ccc(F)cc3)N(C)C)CC2)c(OC)c1 (stereo not shown) | 26
CN(C)C(c1ccc(Cl)cc1)C1CCC(CNC(=O)COC2CCN(S(=O)(=O)c3ccccc3)C2)CC1 (stereo not shown) | −13

In: Input COc1ccc(S(=O)(=O)N2CCCCC2COCC(=O)NCCC2CCC(C(c3ccc(F)cc3)N(C)C)CC2)c(OC)c1 (stereo not shown) , output reported B1R Ant. r [10 μM] % Inhibition.
Out: 23

In: Input COc1ccc(S(=O)(=O)N2CCCC2COCC(=O)NCCC2CCC(C(c3ccc(Cl)cc3)N(C)C)CC2)cc1 (stereo not shown) , output reported B1R Ant. r [10 μM] % Inhibition.
Out: 45

In: Input COc1ccc(S(=O)(=O)N2CCCCC2COCC(=O)NC2CCC(C(c3ccc(F)cc3)N(C)C)CC2)cc1OC (stereo not shown) , output reported B1R Ant. r [10 μM] % Inhibition.
Out: 0

In: Input COc1cc(C)c(S(=O)(=O)N(CCOCC(=O)NCC2CCC(C(c3ccccc3)N(C)C)CC2)Cc2ccccc2)c(C)c1C (stereo not shown) , output reported B1R Ant. r [10 μM] % Inhibition.
Out: 7

In: Input COc1ccc(S(=O)(=O)N2CCCCC2COCC(=O)NCC2CCC(C(CCc3ccccc3)N(C)C)CC2)c(OC)c1 (stereo not shown) [Example 486] , output reported B1R Ant. r [10 μM] % Inhibition.
Out: 20

In: Input COc1ccc(S(=O)(=O)N(C)CCOCC(=O)NC2CCC(C(c3cccs3)N(C)C)CC2)cc1OC (stereo not shown) , output reported B1R Ant. r [10 μM] % Inhibition.
Out: 20

In: Input CCN(CCOCC(=O)NCC1CCC(C(c2ccc(Cl)cc2)N(C)C)CC1)S(=O)(=O)c1c(C)cc(OC)c(C)c1C (stereo not shown) , output reported B1R Ant. r [10 μM] % Inhibition.
Out: 33

In: Input CCN(CCOCC(=O)NCC1CCC(C(c2ccccc2)N(C)C)CC1)S(=O)(=O)c1c(C)cc(OC)c(C)c1C (stereo not shown) , output reported B1R Ant. r [10 μM] % Inhibition.
Out: 29

In: Input CN(C)C(c1ccc(F)cc1)C1CCC(CCNC(=O)COCCN(C)S(=O)(=O)c2ccc(Cl)cc2)CC1 (stereo not shown) , output reported B1R Ant. r [10 μM] % Inhibition.
Out: 25

In: Input COc1cc(C)c(S(=O)(=O)N2CCC(OCC(=O)NC3CCC(C(c4ccc(F)cc4)N(C)C)CC3)C2)c(C)c1C (stereo not shown) , output reported B1R Ant. r [10 μM] % Inhibition.
Out: 2

In: Input CN(C)C(c1ccc(Cl)cc1)C1CCC(CNC(=O)COCCN(C)S(=O)(=O)c2ccc(F)cc2)CC1 (stereo not shown) , output reported B1R Ant. r [10 μM] % Inhibition.
Out: 32

In: Input CN(C)C(c1cccs1)C1CCC(CCNC(=O)COC2CCCCC2N(C)S(=O)(=O)c2ccc(Cl)c(Cl)c2)CC1 (stereo not shown) , output reported B1R Ant. r [10 μM] % Inhibition.
Out: 19

In: Input COc1ccc(S(=O)(=O)N(C)CCOCC(=O)NCCC2CCC(C(c3ccc(F)cc3)N(C)C)CC2)cc1OC (stereo not shown) , output reported B1R Ant. r [10 μM] % Inhibition.
Out: 19

In: Input COc1ccc(S(=O)(=O)N2CCC(OCC(=O)NCCC3CCC(C(c4ccc(Cl)cc4)N(C)C)CC3)C2)cc1OC (stereo not shown) , output reported B1R Ant. r [10 μM] % Inhibition.
Out: 27
